Origin of values: the supplement of paper PMC11208160

test-method-notes: recombinant UMI read abundance after kanamycin selection (control-corrected) (log10(CPM+1)); higher = more efficient recombination; extreme values may be limits of the assay; sequences stand for … in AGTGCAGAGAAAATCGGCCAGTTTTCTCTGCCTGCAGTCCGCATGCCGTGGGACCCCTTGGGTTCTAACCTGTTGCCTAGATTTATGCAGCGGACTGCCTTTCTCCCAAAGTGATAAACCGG…AGGTTGGTTTCACT; site = the 11-nt donor
quantity-name: recombinant UMI read abundance (log10)
I only need the number, thanks.

Could you share which recombinant UMI read abundance (log10) value was measured for CGCGGACCATGGACCGGTTTTCCCGGTAATCCGTATTTGGG (site CGCGGACCTCC) ? 0

CCAGTAGCATGGACCGGTTTTCCCGGTAATCCGTATTTGAC (site CCAGTAGCTGT) ? 2.06

AGCTCAGCATGGACCGGTTTTCCCGGTAATCCGTATTTGGC (site AGCTCAGCTTC) ? 0.398

CGCCGAACATGGACCGGTTTTCCCGGTAATCCGTATTTGCT (site CGCCGGACTAG) ? 0.95

CGAGGGCCATGGACCGGTTTTCCCGGTAATCCGTATTTGGG (site CGAGGTCCTCC) ? 0.0269

* * *

test-method-notes: recombinant barcode read abundance after kanamycin selection (control-corrected) (log10(CPM+1)); higher = more efficient recombination; sequences stand for … in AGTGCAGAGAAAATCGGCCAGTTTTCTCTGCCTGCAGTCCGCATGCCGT…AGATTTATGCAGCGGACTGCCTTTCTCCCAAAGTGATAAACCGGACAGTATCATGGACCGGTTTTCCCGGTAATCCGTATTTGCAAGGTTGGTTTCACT; site = the 11-nt target
Please mark Y if the recorded recombinant barcode read abundance (log10) is equal to or greater than 0.2, and N if it falls below.

Hi, just wondering whether AGCGCTCCTTGGGTTCTAACCTGTTGCCT (site ATCGCTCCTAG) shows recombinant barcode read abundance (log10) of 0.2 or higher. N

GTGACCGCTTGGGTTCTAACCTGTTGCCT (site GTTACCGCTAG) ? Y

CTGTATACTTGGGTTCTAACCTGTTGCCA (site CTGTATACTTG) ? N

TCCGAGACTTGGGTTCTAACCTGTTGCCC (site TCCGAGACTGG) ? Y

AGGTCTACTTGGGTTCTAACCTGTTGCCA (site TTAGACCCTCT) ? N

TACTAAGCTTGGGTTCTAACCTGTTGCAT (site TACTAAGCTAA) ? N

GTGTTTGCTTGGGTTCTAACCTGTTGCCT (site GCGTTTGCTAG) ? N

ATGACTACTTGGGTTCTAACCTGTTGCTC (site ATGACTACTGA) ? Y

AAAGGGTCTTGGGTTCTAACCTGTTGCCT (site ATAGGGTCTAG) ? Y

GCATATACTTGGGTTCTAACCTGTTGCGT (site GCATATACTAC) ? Y

* * *

test-method-notes: recombinant barcode read abundance after kanamycin selection (control-corrected) (log10(CPM+1)); higher = more efficient recombination; sequences stand for … in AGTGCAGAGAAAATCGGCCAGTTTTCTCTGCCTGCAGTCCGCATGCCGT…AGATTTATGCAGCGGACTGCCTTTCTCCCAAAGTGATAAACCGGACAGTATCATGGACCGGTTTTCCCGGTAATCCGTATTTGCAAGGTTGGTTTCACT; site = the 11-nt target
quantity-name: recombinant barcode read abundance (log10)
I only need the number, thanks.

Could you share which recombinant barcode read abundance (log10) value was measured for GGGTAACCTTGGGTTCTAACCTGTTGCCT (site TGGTAACCTAG) ? 0.19

TTAGCATCTTGGGTTCTAACCTGTTGCCT (site TTAGCCTCTAG) ? 0.412

TTGGTAGCTTGGGTTCTAACCTGTTGCCT (site TTGGTAGCTAG) ? 1.63

TATCAGCCTTGGGTTCTAACCTGTTGCTT (site TATCAGCCTAA) ? 0.0238

TAGTACTCTTGGGTTCTAACCTGTTGCTC (site TAGTACTCTAA) ? 0.096

ACCGTAGCTTGGGTTCTAACCTGTTGCCT (site ACCGTACCTAG) ? 0.33

TATGGGACTTGGGTTCTAACCTGTTGCCT (site TATGGGACTAG) ? 1.25

TTAGTTGCTTGGGTTCTAACCTGTTGCCT (site TTAGTCGCTAG) ? 0.0596

TGCAGGGCTTGGGTTCTAACCTGTTGCGG (site GCATACACTTG) ? 0.177

CAGGGTCCTTGGGTTCTAACCTGTTGCGG (site TAGGGTTCTCC) ? 0.0367

GCAGGGTCTTGGGTTCTAACCTGTTGCTT (site GCTGGGTCTAA) ? 0.355

TAGTGTGCTTGGGTTCTAACCTGTTGCTT (site TAGTGTGCTAA) ? 0.31

TACTTCGCTTGGGTTCTAACCTGTTGCCT (site CACATCGCTAG) ? 0.042

TTAGTCGCTTGGGTTCTAACCTGTTGCCT (site TTAGTGGCTAG) ? 0.134

AGGAGTCCTTGGGTTCTAACCTGTTGCGT (site AGGAGTCCTAC) ? 2.57

GCATCGGCTTGGGTTCTAACCTGTTGCCT (site GCTTCGGCTAG) ? 0.0102

ACAGAGACTTGGGTTCTAACCTGTTGCAC (site ACAGAGACTGT) ? 1.76

CTTTCGCCTTGGGTTCTAACCTGTTGCCT (site CTCTCGCCTAG) ? 0.102

TCCGGTACTTGGGTTCTAACCTGTTGCAT (site TCCAGTACTAT) ? 0.369

TAGGAAACTTGGGTTCTAACCTGTTGCGT (site TAGGATACTAC) ? 0.447

TACCCGCCTTGGGTTCTAACCTGTTGCTA (site TACCCGCCTTA) ? 0.59
